Each entry below lists one item and its recorded MIC value.
# Tested on: Streptococcus pneumoniae ATCC6303
# experiment: MIC, microbroth dilution (NCCLS)
# Type: cell-based
# details: rifS strain, THY Broth with 1 mg/mL catalase, 5% CO2, 37° C., read-out: MIC

molecule: CO[C@H]1/C=C/O[C@@]2(C)Oc3c(C)c(O)c4c(O)c(c(/C=N/N5CCN(C6CCN(c7nc8c(cc7F)c(=O)c(C(=O)O)cn8-c7ccc(F)cc7F)C6)CC5)c(O)c4c3C2=O)NC(=O)/C(C)=C\C=C\[C@H](C)[C@H](O)[C@@H](C)[C@@H](O)[C@@H](C)[C@H](OC(C)=O)[C@@H]1C (mixture of isomers) [Example 34]
MIC: 0.008 to 0.06 µg/mL
//
molecule: COc1c(N2CCN(/N=C/c3c4c(O)c5c(O)c(C)c6c(c5c3O)C(=O)[C@@](C)(O/C=C/[C@H](OC)[C@@H](C)[C@@H](OC(C)=O)[C@H](C)[C@H](O)[C@H](C)[C@@H](O)[C@@H](C)/C=C/C=C(/C)C(=O)N4)O6)C(C)C2)c(F)cc2c(=O)c(C(=O)O)cn(C3CC3)c12 (mixture of isomers) [Example 7]
MIC: 0.008 to 0.06 µg/mL
//
molecule: COc1c(N2CCC(C3(N(C)C4CCN(/N=C/c5c6c(O)c7c(O)c(C)c8c(c7c5O)C(=O)[C@@](C)(O/C=C/[C@H](OC)[C@@H](C)[C@@H](OC(C)=O)[C@H](C)[C@H](O)[C@H](C)[C@@H](O)[C@@H](C)/C=C/C=C(/C)C(=O)N6)O8)CC4)CC3)C2)c(F)cc2c(=O)c(C(=O)O)cn(C3CC3)c12 (mixture of isomers) [Example 16]
MIC: 0.008 to 0.06 µg/mL
